Measured values drawn from the supplement of paper PMC10065799 for this set.

phosphorylation enrichment values, listed per item
Target: EPHB1 (UniProt P54762)
Sequence (P54762 whole entry, looked up): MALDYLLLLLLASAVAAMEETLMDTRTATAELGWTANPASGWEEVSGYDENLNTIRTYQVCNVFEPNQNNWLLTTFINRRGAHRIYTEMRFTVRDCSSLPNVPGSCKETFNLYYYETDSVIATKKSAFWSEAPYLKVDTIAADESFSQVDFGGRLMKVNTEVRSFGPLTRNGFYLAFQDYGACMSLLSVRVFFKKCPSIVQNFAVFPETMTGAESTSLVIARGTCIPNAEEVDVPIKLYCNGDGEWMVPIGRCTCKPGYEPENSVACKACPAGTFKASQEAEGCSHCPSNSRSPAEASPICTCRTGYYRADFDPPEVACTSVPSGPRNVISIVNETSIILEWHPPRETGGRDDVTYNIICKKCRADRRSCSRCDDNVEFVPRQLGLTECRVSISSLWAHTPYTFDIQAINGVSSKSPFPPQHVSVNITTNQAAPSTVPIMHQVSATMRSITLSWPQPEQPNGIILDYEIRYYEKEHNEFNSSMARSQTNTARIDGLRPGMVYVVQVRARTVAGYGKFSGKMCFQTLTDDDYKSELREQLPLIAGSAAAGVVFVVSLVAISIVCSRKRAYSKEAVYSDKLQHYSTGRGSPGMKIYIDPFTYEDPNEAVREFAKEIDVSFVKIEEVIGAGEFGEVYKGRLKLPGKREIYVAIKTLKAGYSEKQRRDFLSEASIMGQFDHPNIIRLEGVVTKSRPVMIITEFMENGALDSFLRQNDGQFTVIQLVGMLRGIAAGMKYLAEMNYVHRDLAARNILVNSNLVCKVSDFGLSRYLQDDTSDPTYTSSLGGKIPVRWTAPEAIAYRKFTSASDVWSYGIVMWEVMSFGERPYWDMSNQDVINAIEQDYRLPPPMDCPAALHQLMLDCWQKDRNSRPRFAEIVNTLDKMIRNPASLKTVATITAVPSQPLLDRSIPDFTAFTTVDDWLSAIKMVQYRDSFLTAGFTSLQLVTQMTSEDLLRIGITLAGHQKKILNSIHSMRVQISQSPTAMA
Assay: phosphorylation enrichment, bacterial display (enrichment ratio); higher = better substrate or ligand; peptides without Tyr show the background;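 note: 11-residue human phosphosite peptides and single-mutation variants displayed on the E. coli surface, counted by deep sequencing, each peptide's frequency after selection divided by its frequency in the unselected input library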;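 note: frequency after pTyr selection over input frequency; kinase dosed for 20-30% of maximal phosphorylation in three min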
Please respond with just the number, no unit label.

DTYDPYLDVAL [USP36_Y268] : 0.805
LSGVIYVILWK [PMP22_Y153_R157W] : 0.809
QGRQTYLPQPA [DDR2_Y813] : 0.527
HGEAYYSEVKA [PAK5_Y182_P187A] : 0.926
SESSYYKSLNL [NGEF_Y289_A286S] : 0.503

Next up:
Query: Give the reported value of phosphorylation enrichment for this record: FPHVIYARLWR [SMAD4_Y95]
Result: 3.11
